// reported growth per item
tested on: RXF 393 renal; assay: NCI-60 one-dose screen, 48 h (100 = growth as untreated, 0 = no growth, -100 = all killed); conditions: 10 µM unless noted
This is part of a sample that, as a whole, favours compounds with a hit. Of some 83,000 tested, about 20% had one in any assay. Calls of active or inactive are those of the source. The calls were made as follows: active = growth percent below 10; inactive = the rest.

Examples from the recorded data:
COMPOUND: CCN(CC)C(=O)CC1=C(C)/C(=C/c2[nH]c(-c3ccc[nH]3)cc2OC)N=C1C
growth: 35.9% (inactive)
--
COMPOUND: CCN(CC)CCOc1ccc(C(=O)/C=C\c2ccc(Cl)cc2Cl)cc1
growth: 34% (inactive)
--
COMPOUND: COCCOC(C)C(/C=N/NC(N)=S)=N/NC(N)=S (centres undefined)
growth: 97.2% (inactive)

// below: growth requested for another compound
Exercise: Item `c1ccc(-c2nc3ccccc3[nH]2)c(OCCCCCOc2ccccc2-c2nc3ccccc3[nH]2)c1` : provide growth
Solution: 81.1% (inactive)

====

system: MDA-MB-435 melanoma; assay: NCI-60 one-dose screen, 48 h; details: 10 µM unless noted
The panel holds about 83,000 compounds, 20% with a hit somewhere; the sample as a whole holds those more often. Calls of active or inactive are those of the source. Rule for the calls: active = growth percent below 10; inactive = the rest.
Result category, one only: 1 (yes) (active), 0 (no) (inactive)

Solved cases below.
MOLECULE: CCCCCCCCn1ccc2cc(NC(=O)CN3CCN(c4cc(C)nc(Cl)n4)CC3)ccc21
GROUP: 0 (no)

MOLECULE: O=C(/C=C/c1ccccc1)c1cccc2ccccc12
GROUP: 0 (no)

MOLECULE: CCN(CCNc1ccc(C)c2sc3cc(Cl)ccc3c(=O)c12)CC(C)(C)O
GROUP: 0 (no)

Exercise: Test call for this molecule, please: `CS(=O)(=O)Nc1cc(-c2ccc3ncnc(Nc4ccc(OCc5ccccn5)c(Cl)c4)c3c2)cnc1Cl`
Solution: 1 (yes)

Exercise: Test call for this molecule, please: `Cn1cc(-c2csc(-c3cn(C)c4ccccc34)n2)c2cnccc21`
Solution: 1 (yes)

Exercise: Test call for this molecule, please: `Nc1nc(N(Cc2ccccc2)c2ccccc2)c2cn[nH]c2n1`
Solution: 1 (yes)

Exercise: Test call for this molecule, please: `Cc1cn(C)cn1`
Solution: 0 (no)

Exercise: Test call for this molecule, please: `Clc1ccc(Nc2ncc(Cc3cccc(Cl)c3Cl)s2)cc1`
Solution: 0 (no)

Exercise: Test call for this molecule, please: `COc1cc2c(cc1OCCCN1CCN(C(=S)SCCC(C#N)(c3ccccc3)c3ccccc3)CC1)N=C[C@@H]1CCCN1C2=O`
Solution: 1 (yes)

Exercise: Test call for this molecule, please: `CC(C)(C)c1ccc(C(=O)N/N=C/c2ccc(O)cc2O)cc1`
Solution: 0 (no)

Exercise: Test call for this molecule, please: `CCOC(=O)C/C(=N\Nc1cc(=O)[nH]c2ccc(OC)cc12)C(=O)OCC`
Solution: 0 (no)

Exercise: Test call for this molecule, please: Cc1ccc(NC(=O)c2sc3nc(C)c(C(O)c4ccccc4)cc3c2N)cc1 (stereo not given)
Solution: 1 (yes)

Exercise: Test call for this molecule, please: `COc1ccc(Oc2ccc(/C=C/C(=O)c3cc4ccccc4oc3=O)cc2)cc1`
Solution: 0 (no)

Exercise: Test call for this molecule, please: `COc1ccc(-c2nc3c(c(-c4ccc(Cl)cc4)nn3-c3ccccc3)c(-c3ccccc3)c2C#N)cc1`
Solution: 0 (no)

Exercise: Test call for this molecule, please: `FC(F)(F)c1[nH]ncc1-c1nc2ccc3[nH]ncc3c2c2c1CCCC2`
Solution: 0 (no)
